molecular target: NIH-3T3 cells overexpressing human IGF-1R (Homo sapiens); assay: IGF-1R cellular autophosphorylation (DELFIA)
pIC50: −log10 of the molar value.
property-label: pIC50

Below: 2 molecules and their reported pIC50.
COc1cc(N2CCC(N3CC[C@@H](F)C3)CC2)ccc1Nc1nc(Nc2cccc(F)c2C(N)=O)c2cc[nH]c2n1 ... < 6.30
COc1cc2c(cc1Nc1nc(Nc3cccc(F)c3C(N)=O)c3cc[nH]c3n1)CN(C(=O)CN(C)C)CC2 ... 6.30 to 7.00

I'm curious: which pIC50 was measured for "COc1ccc(OCCCN(C)C)cc1Nc1nc(Nc2ccc(F)cc2C(N)=O)c2cc[nH]c2n1" tested on NIH-3T3 cells overexpressing human IGF-1R (Homo sapiens)?
> 7.00

Which pIC50 is reported with NIH-3T3 cells overexpressing human IGF-1R (Homo sapiens) for this entry: "COc1cc2c(cc1Nc1nc(Nc3cccc(F)c3C(N)=O)c3cc[nH]c3n1)N(C(=O)CN)CC2" ?
< 6.30

Tell me reported pIC50 for "COc1cc(N2CCN(C(C)=O)CC2)ccc1Nc1nc(Nc2cc(F)c(F)cc2C(N)=O)c2cc[nH]c2n1" , tested with NIH-3T3 cells overexpressing human IGF-1R (Homo sapiens).
> 7.00

###

target: human IR (hIR) (Homo sapiens); construct: containing amino acid residues 979-1382 of human IR; assay: TR-FRET kinase assay of purified hIR; conditions: activated hIR 0.5 nM, 10 μM ATP, values given as pIC50 category
pIC50: −log10 of the molar value.
property-label: pIC50

CNC(=O)c1c(F)cccc1Nc1nc(Nc2cc3c(cc2OC)CCN3C(=O)[C@H]2CCCN2C)nc2[nH]ccc12 [Example 129] ... 6.80 to 8.30

Param item = Cc1ccc(NC(=O)CN(C)C)cc1Nc1nc(Nc2cc(Cl)ccc2C(N)=O)c2cc[nH]c2n1 [Example 111] ; retrieve measured pIC50.
8.40 to 8.90

Any idea what its pIC50 is? The compound is CCN(C)CC(=O)N1CCc2cc(OC)c(Nc3nc(Nc4cccc(F)c4C(=O)NC)c4cc[nH]c4n3)cc21 [Example 165]
6.80 to 8.30

###

molecular target: human IR (hIR) (Homo sapiens, UniProt P06213); construct: containing amino acid residues 979-1382 of human IR; experiment: TR-FRET kinase assay of purified hIR; settings: activated hIR 0.5 nM, 10 μM ATP, values given as pIC50 category
Sequence (P06213 979-1382): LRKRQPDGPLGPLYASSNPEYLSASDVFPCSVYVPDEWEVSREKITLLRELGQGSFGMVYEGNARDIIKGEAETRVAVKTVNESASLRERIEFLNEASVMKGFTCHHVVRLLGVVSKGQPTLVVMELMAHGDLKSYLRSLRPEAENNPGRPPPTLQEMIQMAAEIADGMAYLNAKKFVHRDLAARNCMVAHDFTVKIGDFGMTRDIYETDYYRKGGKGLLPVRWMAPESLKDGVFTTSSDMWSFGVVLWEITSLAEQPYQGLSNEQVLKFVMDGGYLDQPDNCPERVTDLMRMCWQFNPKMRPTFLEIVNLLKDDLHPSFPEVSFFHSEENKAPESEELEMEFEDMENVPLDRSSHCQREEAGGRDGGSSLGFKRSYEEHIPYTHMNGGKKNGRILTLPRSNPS
pIC50: −log10 of the molar value.
property-label: pIC50

Check out these entries, answers already filled in.
COc1cc(CS(C)(=O)=O)ccc1Nc1nc(Nc2ccccc2C(N)=O)c2cc[nH]c2n1 ... 8.40 to 8.90
COc1cc(N2CCOC[C@@H]2C)ccc1Nc1nc(Nc2cc(F)ccc2C(N)=O)c2cc[nH]c2n1 ... 9.00 to 9.60
CNC(=O)c1c(F)cccc1Nc1nc(Nc2cc3c(cc2OC)CCN3C(C)=O)nc2[nH]ccc12 ... 6.80 to 8.30
CCN(CC)CC(=O)N1CCc2cc(OC)c(Nc3nc(Nc4cccc(F)c4C(=O)NC)c4cc[nH]c4n3)cc21 ... 6.80 to 8.30
COc1cc2c(cc1Nc1nc(Nc3cc(Cl)cc(F)c3C(N)=O)c3cc[nH]c3n1)N(C(=O)CN(C)C)CC2 ... 9.00 to 9.60
COc1cc(N2CCN(C(C)C)CC2)ccc1Nc1nc(Nc2ccc(F)cc2C(N)=O)c2cc[nH]c2n1 ... 9.00 to 9.60

Now let's try a different one.
GET /values?readout=pIC50&item= "COc1cc(N2CCC(N3CCN(S(C)(=O)=O)CC3)CC2)ccc1Nc1nc(Nc2cccc(F)c2C(N)=O)c2cc[nH]c2n1"
9.00 to 9.60

###

molecular target: human IGF1R (hIGF1R) (Homo sapiens, UniProt P08069); construct: containing amino acid residues 957-1367 of human IGF1R; made in house; host or cells: Sf9 cells (baculovirus); experiment: TR-FRET kinase assay of purified hIGF1R; assay type: biochemical; settings: activated hIGF1R 0.5 nM, 10 μM ATP, values given as pIC50 category, read-out: IGF-1R pIC50 (converted)
# IC50 listing for each entry below

CCNC(=O)c1c(F)cc(F)cc1Nc1nc(Nc2cc3c(cc2OC)CCN3C(=O)CN(C)C)nc2[nH]ccc12 ... 0.251 to 1 nM
COc1cc(N2CCC(N3CCN(CCS(C)(=O)=O)CC3)CC2)ccc1Nc1nc(Nc2cccc(F)c2C(N)=O)c2cc[nH]c2n1 ... 1.26 to 3.98 nM
CNC(=O)c1c(F)cc(Cl)cc1Nc1nc(Nc2cc3c(cc2OC)CCN3C(=O)CN2CCCC2)nc2[nH]ccc12 ... 0.251 to 1 nM

Test system human IGF1R (hIGF1R) (Homo sapiens, UniProt P08069); read-out IC50; what value for "CCCN(CCC)[C@@H](C)C(=O)N1CCc2cc(OC)c(Nc3nc(Nc4cccc(F)c4C(=O)NC)c4cc[nH]c4n3)cc21" ?
5.01 to 200 nM

###

target: NIH-3T3 cells overexpressing human IGF-1R (Homo sapiens); test: IGF-1R cellular autophosphorylation (DELFIA)
property-label: IC50

Query: IC50; subject: COc1cc2c(cc1Nc1nc(Nc3cccc(F)c3C(N)=O)c3cc[nH]c3n1)N(C(=O)CN(C)C)[C@@H](C)C2 [Example 249]
< 100 nM

Tell me the measured IC50 of CNC(=O)c1c(F)cccc1Nc1nc(Nc2cc3c(cc2OC)CCN3C(=O)CN(C)C)nc2[nH]cc(C)c12 [Example 258] , please.
100 to 500 nM

Reported IC50 for CCCN1CCC(COc2ccc(Nc3nc(Nc4cccc(F)c4C(N)=O)c4cc[nH]c4n3)c(OC)c2)CC1 [Example 206] : what is it?
100 to 500 nM

###

target: human IGF1R (hIGF1R) (Homo sapiens, UniProt P08069); construct: containing amino acid residues 957-1367 of human IGF1R; made in house; host or cells: Sf9 cells (baculovirus); assay: TR-FRET kinase assay of purified hIGF1R; type: biochemical; settings: activated hIGF1R 0.5 nM, 10 μM ATP, values given as pIC50 category, read-out: IGF-1R pIC50 (converted)
Each entry below carries its recorded IC50.

Illustrative cases are given below, each with its answer.
COc1cc2c(cc1Nc1nc(Nc3cccc(F)c3C(N)=O)c3cc[nH]c3n1)N(C(=O)CN1CCCCC1)CCC2 ... 0.251 to 1 nM
CNC(=O)c1c(F)cccc1Nc1nc(Nc2cc3c(cc2OC)C(C)(C)CCN3C(=O)CN2CCCC2)nc2[nH]ccc12 ... 0.251 to 1 nM
COc1cc2c(cc1Nc1nc(Nc3cccc(F)c3C(N)=O)c3cc[nH]c3n1)N(C(=O)CN(C)C)[C@H](C)C2 ... 5.01 to 200 nM

What does the record list as IC50 for "COc1cc(C2CCN(C(C)C)CC2)ccc1Nc1nc(Nc2ccc(F)cc2C(N)=O)c2cc[nH]c2n1" ?
0.251 to 1 nM

# IC50 lookup, item "CNC(=O)c1c(F)cc(F)cc1Nc1nc(Nc2cc3c(cc2OC)CCCN3C(=O)CN(C)C)nc2[nH]ccc12"
0.251 to 1 nM

Could you tell me which IC50 is on file for "CCc1cc(N2CCN(C(C)C)CC2)ccc1Nc1nc(Nc2cc(F)ccc2C(N)=O)c2cc[nH]c2n1" ?
1.26 to 3.98 nM

###

Molecular target: NIH-3T3 cells overexpressing human IGF-1R (Homo sapiens, UniProt P08069)
Sequence (P08069 31-1367): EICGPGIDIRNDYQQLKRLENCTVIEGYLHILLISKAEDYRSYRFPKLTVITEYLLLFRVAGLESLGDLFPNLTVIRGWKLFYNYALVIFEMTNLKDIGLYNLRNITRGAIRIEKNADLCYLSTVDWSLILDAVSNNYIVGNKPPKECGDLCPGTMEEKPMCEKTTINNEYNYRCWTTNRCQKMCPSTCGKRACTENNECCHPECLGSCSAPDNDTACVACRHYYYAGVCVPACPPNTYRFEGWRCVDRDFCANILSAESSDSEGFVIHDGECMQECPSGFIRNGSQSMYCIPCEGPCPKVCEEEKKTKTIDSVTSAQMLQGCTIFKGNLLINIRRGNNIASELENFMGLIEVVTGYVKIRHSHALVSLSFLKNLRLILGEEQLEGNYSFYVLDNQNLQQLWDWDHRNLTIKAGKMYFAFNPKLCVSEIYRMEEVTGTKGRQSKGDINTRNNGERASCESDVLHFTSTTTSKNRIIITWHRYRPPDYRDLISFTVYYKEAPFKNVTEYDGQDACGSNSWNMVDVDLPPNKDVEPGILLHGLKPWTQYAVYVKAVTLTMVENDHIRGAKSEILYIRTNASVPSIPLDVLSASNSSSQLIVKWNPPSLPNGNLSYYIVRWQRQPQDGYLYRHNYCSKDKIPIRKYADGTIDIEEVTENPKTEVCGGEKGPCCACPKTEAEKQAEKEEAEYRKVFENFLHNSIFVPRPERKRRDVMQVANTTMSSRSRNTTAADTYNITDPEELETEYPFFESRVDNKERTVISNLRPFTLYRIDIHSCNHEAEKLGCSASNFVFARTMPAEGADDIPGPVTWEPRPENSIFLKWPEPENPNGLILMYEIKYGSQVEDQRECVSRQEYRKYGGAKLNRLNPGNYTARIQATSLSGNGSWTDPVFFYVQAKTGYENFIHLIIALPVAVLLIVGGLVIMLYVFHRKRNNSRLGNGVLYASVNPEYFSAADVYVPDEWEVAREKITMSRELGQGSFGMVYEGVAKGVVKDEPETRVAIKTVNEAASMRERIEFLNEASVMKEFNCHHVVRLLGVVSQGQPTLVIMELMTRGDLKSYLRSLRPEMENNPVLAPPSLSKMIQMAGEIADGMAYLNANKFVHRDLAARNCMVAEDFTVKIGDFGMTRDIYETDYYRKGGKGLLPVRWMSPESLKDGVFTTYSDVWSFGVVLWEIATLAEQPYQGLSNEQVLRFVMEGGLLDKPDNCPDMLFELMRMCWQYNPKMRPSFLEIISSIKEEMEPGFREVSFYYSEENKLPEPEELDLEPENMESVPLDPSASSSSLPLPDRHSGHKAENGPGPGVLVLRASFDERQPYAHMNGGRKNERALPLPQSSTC
Test: IGF-1R cellular autophosphorylation (DELFIA)
Protocol: NIH-3T3 cells overexpressing human IGF-1R or IR were plated in 96-well plates (10,000 cells/well) in culture media containing 10% fetal bovine serum and incubated at 37° C. in a 5% CO2 incubator. Twenty four hours post-plating, cells were treated with different concentrations of test compounds ranging from 30 uM to 1.5 nM. […] The fluorescence signal for cells treated with compounds was expressed as percent relative to 100% stimulation (IGF-1 or insulin stimulated signal).
pIC50: −log10 of the molar value.
# Lookup of reported pIC50 keyed by entry

Example cases with answers are listed next.
CCCN1CCC=C(c2ccc(Nc3nc(Nc4ccccc4C(=O)NC)c4cc[nH]c4n3)c(OC)c2)C1 [Example 23] ... 6.30 to 7.00
CNC(=O)c1c(Nc2nc(Nc3cc4c(cc3OC)CCCN4C(=O)CN(C)C)nc3[nH]ccc23)ccc(F)c1F [Example 163] ... > 7.00
COc1cc(N2CCCN(S(C)(=O)=O)CC2)ccc1Nc1nc(Nc2cccc(F)c2C(N)=O)c2cc[nH]c2n1 [Example 207] ... < 6.30

# input for lookup
Lookup: pIC50 / NIH-3T3 cells overexpressing human IGF-1R (Homo sapiens, UniProt P08069) / CNC(=O)c1c(F)cccc1Nc1nc(Nc2cc3c(cc2OC)CCN3C(C)=O)nc2[nH]ccc12 [Example 135]
< 6.30

The origin of these recorded values is patent US7981903B2.
